# Plant response rating, Corn per entry
system: corn (Zea mays); assay: Test A postemergence, corn; assay type: in vivo; conditions: 31 g ai/ha, postemergence; 0 to 100 scale, 0 is no effect, 100 is complete control; approximately 10 days
Form field (numeric): enter value without unit.

1. N#CCCCOc1c(C#N)cccc1Oc1ncc(F)cn1: 0
2. FC(F)(F)CCCCOc1c(Br)cccc1Oc1ncc(Cl)cn1: 10
3. FC(F)(F)CCCOc1c(Cl)cccc1Oc1ncc(Cl)cn1: 10
4. FC(F)(F)/C=C/COc1c(Cl)cccc1Oc1ncc(Cl)cn1: 10
5. CCCOc1c(C#N)cccc1Oc1ncc(Cl)cn1: 10
6. FC(F)(F)CCCOc1c(Br)cccc1Oc1ncc(Cl)cn1: 10
7. FC(F)(F)/C=C/COc1c(I)cccc1Oc1ncc(Cl)cn1: 10
8. FCCCOc1c(I)cccc1Oc1ncc(Cl)cn1: 0

// field: Plant response rating, Corn; key: `Cc1cccc(Oc2ncc(Cl)cn2)c1OCCCC(F)(F)F` ; value = 0

Short answer for `N#CCCCOc1c(C#N)cccc1Oc1ncc(Cl)cn1` : Plant response rating, Corn was 10

###

tested on: ragweed (common ragweed, Ambrosia elatior); assay: Test A postemergence, ragweed; assay type: in vivo; details: 31 g ai/ha, postemergence; 0 to 100 scale, 0 is no effect, 100 is complete control; approximately 10 days
observedProperty: Plant response rating, Ragweed
// no unit string in output, number only

Recorded result, `Cc1cccc(Oc2ncc(Cl)cn2)c1OC/C=C/C(F)(F)F` , Plant response rating, Ragweed: 0

Entry under test: `FC(F)(F)CCCOc1c(Cl)cccc1Oc1ncc(Cl)cn1` . Its Plant response rating, Ragweed was 0

For reference, reported Plant response rating, Ragweed for `N#CCCCOc1c(C#N)cccc1Oc1ncc(Cl)cn1` stands at 0

Entry `Cc1cccc(Oc2ncc(Cl)cn2)c1OCCCF` , Plant response rating, Ragweed reported as 0

Measured Plant response rating, Ragweed, `N#Cc1cccc(Oc2ncc(F)cn2)c1OC/C=C/C(F)(F)F` : 0

Reported Plant response rating, Ragweed for `N#Cc1cccc(Oc2ncc(F)cn2)c1OC/C=C/Cl` was 20

Entry under test: `CCCCCOc1c(C#N)cccc1Oc1ncc(Cl)cn1` . Its Plant response rating, Ragweed was 0

The recorded Plant response rating, Ragweed for entry `N#CCCCOc1c(C#N)cccc1Oc1ncc(F)cn1` equals 30

For this compound ( `FC(F)=C(F)CCOc1c(Br)cccc1Oc1ncc(Cl)cn1` ), measured Plant response rating, Ragweed is 0

Record `N#Cc1cccc(Oc2ncc(F)cn2)c1OCCC(F)(F)F` . Reported Plant response rating, Ragweed: 0

Entry `Cc1cccc(Oc2ncc(Cl)cn2)c1OCCCC(F)(F)F` , Plant response rating, Ragweed reported as 0

response.value for `N#Cc1cccc(Oc2ncc(Cl)cn2)c1OC/C=C/Cl` (field: Plant response rating, Ragweed) = 0

Reported Plant response rating, Ragweed of `FCCCOc1c(Cl)cccc1Oc1ncc(Cl)cn1` : 0

Plant response rating, Ragweed measured on `N#Cc1cccc(Oc2ncc(Cl)cn2)c1OCc1ccc(Cl)cn1` = 0

###

tested on: ragweed (common ragweed, Ambrosia elatior); test: Test A preemergence, ragweed; format: in vivo; conditions: Ambrosia artemisiifolia, pre-emergence, 240 h; Preemergence, 125 g ai/ha; 0 to 100 scale (0 no effect, 100 complete control); read-out: Plant response rating, Ragweed
List of pest or weed control at 125 g/ha values.

Some solved entries appear below for comparison.
1. FC(F)(F)COc1c(Cl)cccc1Oc1ncc(Cl)cn1 [Compound 42]: 0%
2. N#Cc1cccc(Oc2ncc(Cl)cn2)c1OCCC(F)(F)F [Compound 23]: 90%
3. N#Cc1cccc(Oc2ncc(F)cn2)c1OCCCC(F)(F)F [Compound 4]: 30%

Moving on to the next molecule.
Record N#Cc1cccc(Oc2ncc(Cl)cn2)c1OCCCC(F)(F)F [Compound 5] . Reported pest or weed control at 125 g/ha: 10%
